Test system: human Factor XI mRNA
measurement description: Dose-dependent inhibition and IC50 in HepG2 cells, electroporation (Example 15)
Type: cell-based
conditions used: electroporation, 370.37 nM
In the oligonucleotide strings, read from the 5' end, every base follows the letter of its sugar. An asterisk marks phosphorothioate; unmarked linkages are phosphodiester. Other units and linkages are bracketed, terminal groups are in braces. A string of capitals states the bases alone. e = 2'-O-(2-methoxyethyl) (MOE); [5mC] = 5-methylcytosine; d = 2'-deoxy (DNA)
test readout: percent inhibition of Factor XI mRNA (%)
Expressed in %, but write only the number.

## Task Entry under review: 445498 (antisense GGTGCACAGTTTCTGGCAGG; 6-8-6 gapmer chemistry, chemistry not fully specified) [compound 445498] . Reported percent inhibition of Factor XI mRNA?
## Result 1

## Task Note, next up: 445503 (antisense GCATTGGTGCACAGTTTCTG; 6-8-6 gapmer chemical modifications, chemistry not fully specified) [compound 445503]
## Result 0

## Task Same read-out for 445504 (antisense eG*eG*e[5mC]*eA*eT*eT*dG*dG*dT*dG*d[5mC]*dA*d[5mC]*dA*eG*eT*eT*eT*e[5mC]*eT) [compound 445504] ?
## Result 20

## Task // query: 416849 (antisense eG*e[5mC]*eA*e[5mC]*eA*dG*dT*dT*dT*d[5mC]*dT*dG*dG*d[5mC]*dA*eG*eG*e[5mC]*e[5mC]*eT) [compound 416849]
## Result 5

## Task # repeat for 416850 (antisense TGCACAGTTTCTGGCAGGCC; 5-10-5 gapmer, wing sugar chemistry not given here, further chemistry not given here) [compound 416850]
## Result 12

====

Test system: human Factor XI mRNA
measurement description: Dose-dependent inhibition in HepG2 cells, electroporation (Example 5)
Format: cell-based
conditions used: 10000 nM, approx. 16 h, relative to untreated control cells
test readout: percent inhibition of human Factor XI mRNA (%)
Quick reminder: number only, in %, skip the unit.

## Task What value of percent inhibition of human Factor XI mRNA has been reported for the following substance? 417002 (antisense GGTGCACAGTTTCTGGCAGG; 2-13-5 gapmer, wing sugar chemistry not given here, further chemistry not given here) [compound 417002]
## Result 94

## Task 416999 (antisense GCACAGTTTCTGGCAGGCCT; 2-13-5 gapmer, wing sugar chemistry not given here, further chemistry not given here) [compound 416999] , same question.
## Result 94

## Task Quick one: 416826 (antisense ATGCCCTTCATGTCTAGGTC; 5-10-5 gapmer, wing sugar chemistry not given here, further chemistry not given here) [compound 416826]
## Result 95

## Task Then 416858 (antisense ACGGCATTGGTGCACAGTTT; 5-10-5 gapmer, wing sugar chemistry not given here, further chemistry not given here) [compound 416858] ?
## Result 93

## Task // query: 417003 (antisense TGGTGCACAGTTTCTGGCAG; 2-13-5 gapmer, wing sugar chemistry not given here, further chemistry not given here) [compound 417003]
## Result 95

====

measurement description: Tolerability in Sprague-Dawley rats: hematology assays (Example 23)
Type: in vivo
Set-up: unit not given here
conditions used: blood
In the oligonucleotide strings, read from the 5' end, every base follows the letter of its sugar. An asterisk marks phosphorothioate; unmarked linkages are phosphodiester. Other units and linkages are bracketed, terminal groups are in braces. A string of capitals states the bases alone. e = 2'-O-(2-methoxyethyl) (MOE); [5mC] = 5-methylcytosine; d = 2'-deoxy (DNA)
test readout: RBC
In your answer, state the number alone without any accompanying words.

## Task RBC lookup needed for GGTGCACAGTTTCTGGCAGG (all C 5-methyl, all phosphorothioate, sugars by position not given here; MOE gapmer) [ISIS 413481, 5-10-5 MOE gapmer] , thanks.
## Result 7.5

## Task Next up: ISIS 416848: gapmer of Table 8 (antisense e[5mC]*eA*e[5mC]*eA*eG*dT*dT*dT*d[5mC]*dT*dG*dG*d[5mC]*dA*dG*eG*e[5mC]*e[5mC]*eT*e[5mC])
## Result 6.0

## Task Let us now turn to ACAGTTTCTGGCAGGCCTCG (antisense; all C 5-methyl, all phosphorothioate, sugars by position not given here; MOE gapmer, 5-10-5) [ISIS 412223, 5-10-5 MOE gapmer]
## Result 7.2

## Task Same lookup for GCAGCGGACGGCATTGGTGC (antisense; all C 5-methyl, all phosphorothioate, sugars by position not given here; MOE gapmer, 5-10-5) [ISIS 412225, 5-10-5 MOE gapmer] , please.
## Result 7.4

## Task Field entry: GGACGGCATTGGTGCACAGT (antisense; all C 5-methyl, all phosphorothioate, sugars by position not given here; MOE gapmer, 5-10-5) [ISIS 413482, 5-10-5 MOE gapmer]
## Result 7.1

====

Give percent inhibition of human Factor XI mRNA for every item shown.
System: human Factor XI mRNA
measurement description: Dose-dependent inhibition in cyno primary hepatocytes, electroporation (Example 6)
Type: cell-based, cynomolgus monkey
conditions used: 180 nM, approx. 16 h
Method: Cells were plated at a density of 35,000 cells per well and transfected via electroporation with 0.74 nM, 2.2 nM, 6.7 nM, 20 nM, 60 nM, and 180 nM concentrations of antisense oligonucleotide, as specified in Table 13. After a treatment period of approximately 16 hours, RNA was isolated from the cells and human Factor XI mRNA levels were measured by quantitative real-time PCR. […] Factor XI mRNA levels were adjusted according to total RNA content, as measured by RIBOGREEN®. […]
Field format: number, assumed %, no unit text.

## Task Report percent inhibition of human Factor XI mRNA for 416838 (antisense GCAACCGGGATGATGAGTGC; 5-10-5 gapmer, wing sugar chemistry not given here, further chemistry not given here) [compound 416838] please.
## Result 62

## Task Record: 416999 (antisense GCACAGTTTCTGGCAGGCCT; 2-13-5 gapmer, wing sugar chemistry not given here, further chemistry not given here) [compound 416999]
## Result 82

## Task Follow-up item: 416825 (antisense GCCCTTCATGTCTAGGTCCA; 5-10-5 gapmer, wing sugar chemistry not given here, further chemistry not given here) [compound 416825]
## Result 84

## Task Field entry: 416826 (antisense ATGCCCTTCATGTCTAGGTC; 5-10-5 gapmer, wing sugar chemistry not given here, further chemistry not given here) [compound 416826]
## Result 71

## Task Also check 416925 (antisense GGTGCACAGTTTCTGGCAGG; 3-14-3 chimeric gapmer, wing sugar chemistry not given here, further chemistry not given here) [compound 416925]
## Result 76

## Task Can you handle 416892 (antisense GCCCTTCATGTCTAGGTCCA; 3-14-3 chimeric gapmer, wing sugar chemistry not given here, further chemistry not given here) [compound 416892] next?
## Result 92

====

Would you mind telling me the reported percent inhibition of human Factor XI mRNA of each entry?
Tested on: human Factor XI mRNA
measurement description: Dose-dependent inhibition in HepB3 cells, lipofectin (Example 7)
Format: cell-based
conditions used: 2.3 nM, approx. 16 h
Answer as a quantity: numeral, then unit.

## Task Item 416864 (antisense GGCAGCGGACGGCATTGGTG; 5-10-5 gapmer, wing sugar chemistry not given here, further chemistry not given here) [compound 416864] has what recorded percent inhibition of human Factor XI mRNA?
## Result 24%

## Task Try this substance too: 416825 (antisense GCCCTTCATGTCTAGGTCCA; 5-10-5 gapmer, wing sugar chemistry not given here, further chemistry not given here) [compound 416825]
## Result 0%

## Task And then 416892 (antisense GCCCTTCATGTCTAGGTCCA; 3-14-3 chimeric gapmer, wing sugar chemistry not given here, further chemistry not given here) [compound 416892] , what is it?
## Result 28%

## Task Proceed to 416858 (antisense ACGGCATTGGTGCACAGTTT; 5-10-5 gapmer, wing sugar chemistry not given here, further chemistry not given here) [compound 416858]
## Result 17%

## Task Also 417003 (antisense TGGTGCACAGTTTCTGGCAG; 2-13-5 gapmer, wing sugar chemistry not given here, further chemistry not given here) [compound 417003] ?
## Result 11%

## Task What about this substance? 417002 (antisense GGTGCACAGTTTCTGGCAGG; 2-13-5 gapmer, wing sugar chemistry not given here, further chemistry not given here) [compound 417002]
## Result 24%

## Task Item: 416925 (antisense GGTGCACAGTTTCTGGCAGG; 3-14-3 chimeric gapmer, wing sugar chemistry not given here, further chemistry not given here) [compound 416925]
## Result 26%

## Task Then 416838 (antisense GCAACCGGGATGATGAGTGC; 5-10-5 gapmer, wing sugar chemistry not given here, further chemistry not given here) [compound 416838] ?
## Result 23%

## Task Another substance to look at: 416826 (antisense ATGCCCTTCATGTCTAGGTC; 5-10-5 gapmer, wing sugar chemistry not given here, further chemistry not given here) [compound 416826]
## Result 16%

## Task Also, 416850 (antisense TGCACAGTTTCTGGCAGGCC; 5-10-5 gapmer, wing sugar chemistry not given here, further chemistry not given here) [compound 416850] please.
## Result 22%

## Task And what about the substance 416999 (antisense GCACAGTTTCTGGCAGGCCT; 2-13-5 gapmer, wing sugar chemistry not given here, further chemistry not given here) [compound 416999] ?
## Result 19%
